Assay: Retention of THC in the mouth after smoking marijuana: THC in saliva and tongue mucus by quantitative GC/MS
Assay type: in vivo, human
Conditions: human, tongue mucus (mucosal scrapings), inhaled; mucosal scrapings from the top of the tongue, 6 hours post smoking 0.2 g of marijuana; read-out: THC Concentration, Mucus
measurement_label: concentration at 6 h (ng/mL)
Field format: number, assumed ng/mL, no unit text.

concentration at 6 h in this record for CCCCCc1cc(O)c2c(c1)OC(C)(C)[C@@H]1CCC(C)=C[C@@H]21 [THC, Tetrahydrocannabinol] : 123

----------
Test: Retention of THC in the mouth after smoking marijuana: THC in saliva and tongue mucus by quantitative GC/MS
Assay type: in vivo, human
Settings: human, tongue mucus (mucosal scrapings), inhaled; mucosal scrapings from the top of the tongue, 24 hours post smoking 0.2 g of marijuana; read-out: THC Concentration, Mucus
measurement_label: concentration at 24 h (ng/mL)
Field format: number, assumed ng/mL, no unit text.

concentration at 24 h in this record for CCCCCc1cc(O)c2c(c1)OC(C)(C)[C@@H]1CCC(C)=C[C@@H]21 [THC, Tetrahydrocannabinol] : 44
